- MEASUREMENT PROTOCOL: Cell toxicity, MTT-based EZ4U assay, HEK-293
- Parameters: species or system human
- CONDITIONS: human, HEK-293 cells (embryonic kidney); HEK, 4.6875 µmol/L, 72 h
READOUT: viability at 72 h, 4.6875 µmol/L
Don't forget the unit after the number, please.

Asked: Which viability at 72 h, 4.6875 µmol/L value belongs to O=C(/N=C(/NCc1ccccc1)Nc1ccc([N+](=O)[O-])cc1)c1ccccc1 [LQOF-G1] ?
Given back: 104%

Asked: What do you get for O=C(/N=C(/NCc1ccccc1)Nc1ccc(Br)cc1)c1ccccc1 [LQOF-G2] ?
Given back: 109%

Asked: Consider next the molecule O=C(/N=C(/NCc1ccc(Cl)cc1Cl)Nc1ccc(Br)cc1)c1ccccc1 [LQOF-G32] in the same way.
Given back: 95%
